Consider the following variants; for each one, report its protein stability index.
B1: TCAP (parent)
chain: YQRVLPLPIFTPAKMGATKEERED

Variants of: B1
Assay info: protein stability index of a GFP-peptide fusion (GPS, HEK-293T) (PSI 1-6); higher = more stable;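 also: lentivirally expressed fusions sorted by FACS into six bins by GFP to DsRed ratio, PSI derived from sequencing read proportions per bin multiplied by bin number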
Experimental parameters: c terminus: a fixed tail appended

Known protein stability index results, listed for orientation:
# Sequence string, protein stability index
rows = [
    ("YQRVLPLPIFTPAKMGATKEQRED [E21Q]", 1.98),
    ("YQRVLPLPIFTPLKMGATKEERED [A13L]", 1.76),
    ("YQRVLPPPIFTPAKMGATKEERED [L7P]", 2.59),
    ("YQRFLPLPIFTPAKMGATKEERED [V4F]", 2.27),
]

Parameter requested: protein stability index. Apply to each item below.
1. YQRVLPLPIFTPAKMGATKEEREY [D24Y]
2. YQRVLPLPDFTPAKMGATKEERED [I9D]
3. YQRVLPLPIFTPAKMGATKEERER [D24R]
4. YQRVLPLPGFTPAKMGATKEERED [I9G]
5. YQRVLPLPIFTPAKMGATKEEEED [R22E]

1.76
3.63
1.55
3.79
2.34

Parameter requested: protein stability index. Apply to each item below.
1. YQIVLPLPIFTPAKMGATKEERED [R3I]
2. YQRVLPLPWFTPAKMGATKEERED [I9W]
3. YQRVLPLPIFTPAKMGATKEERMD [E23M]
4. YQRVLPLPIFTPAKMGATKEEHED [R22H]
5. YQLVLPLPIFTPAKMGATKEERED [R3L]
6. YQRVLPLPIFTPAKMGATYEERED [K19Y]
7. YQRVLPLPIFMPAKMGATKEERED [T11M]

1. 1.73
2. 2.2
3. 1.9
4. 1.95
5. 1.86
6. 2.01
7. 2.08

Parameter requested: protein stability index. Apply to each item below.
1. YARVLPLPIFTPAKMGATKEERED [Q2A]
2. YQRVLPLPIFTPAKMGATKEERRD [E23R]
3. YQRVCPLPIFTPAKMGATKEERED [L5C]
4. YQRVLPLPIFTPIKMGATKEERED [A13I]
5. GQRVLPLPIFTPAKMGATKEERED [Y1G]
6. YQRVLPLPIFTPAKMGATKEERND [E23N]
7. YQRVLPLPIFKPAKMGATKEERED [T11K]

[1.92, 1.92, 1.86, 2.18, 4.97, 1.8, 3.63]

Parameter requested: protein stability index. Apply to each item below.
1. YQRVLPLPIFTPAKMGAPKEERED [T18P]
2. YQRVLPLPIFTPAKMGATKEEREV [D24V]

1.91
1.87

Parameter requested: protein stability index. Apply to each item below.
1. YQRVLPWPIFTPAKMGATKEERED [L7W]
2. YQRVLPLPIFTPAKMGAFKEERED [T18F]
3. YQRVLPLPIFTPAAMGATKEERED [K14A]
4. YQRVLPLPIFTPASMGATKEERED [K14S]
5. YQRVLPLPIFTPAYMGATKEERED [K14Y]
6. YQRVLPLPIFTPAKMGATKEEREE [D24E]

1. 2.86
2. 1.76
3. 1.64
4. 2.46
5. 1.97
6. 2.21

Parameter requested: protein stability index. Apply to each item below.
1. YQPVLPLPIFTPAKMGATKEERED [R3P]
2. YQRVLPLPIFTPAKKGATKEERED [M15K]
3. YQRVLPLPIFTPAKMGATKEERID [E23I]
4. YQRVLPLPIFTPAPMGATKEERED [K14P]
5. YQRVLPLPIFTPAKMGATCEERED [K19C]
6. YQFVLPLPIFTPAKMGATKEERED [R3F]
7. YQRVLPLPIFTPAKMGATKEESED [R22S]
8. YQRVLPLPIFTPAKMGATREERED [K19R]

1.55
2.38
2.3
2.62
1.78
2.63
1.76
2.02
